growth listing for selected molecules.
- Tested on: OVCAR-5 ovarian
- Procedure Details: NCI-60 one-dose screen, 48 h (100 = growth as untreated, 0 = no growth, -100 = all killed)
- Assay Context: 10 µM unless noted
Compounds without any hit were thinned out: in the full panel of roughly 83,000, 20% have a hit.
Respond with the bare value in %.

>  <Molecule>
COC(=O)[C@@H](C)C[C@H](Cc1ccc2ccccc2c1)NC(=O)c1csc([C@@H](C[C@H](C(C)C)N(C)C(=O)[C@@H](NC(=O)[C@H]2CCCCN2C)C(C)C)OC(C)=O)n1

>  <Target System>
OVCAR-5 ovarian

>  <Value Measured>
77.6

$$$$
>  <Molecule>
CNC(=O)Oc1ccc2c(c1)OCO2

>  <Target System>
OVCAR-5 ovarian

>  <Value Measured>
106

$$$$
>  <Molecule>
Clc1cccc(Cl)c1Cl

>  <Target System>
OVCAR-5 ovarian

>  <Value Measured>
97.8

$$$$
>  <Molecule>
CCC(=O)Nc1ccc(Cl)c(Cl)c1

>  <Target System>
OVCAR-5 ovarian

>  <Value Measured>
92.9

$$$$

Asked: # growth lookup, item CO[C@H](C(=O)O)[C@@H]1Cc2cc3cc(OC4CC(OC5CC(O)C(O)C(C)O5)C(O)C(C)O4)c(C)c(O)c3c(O)c2C(=O)[C@H]1OC1CC(OC2CC(OC3CC(C)(O)C(O)C(C)O3)C(O)C(C)O2)C(O)C(C)O1 (stereo partly specified)
Given back: 17.6

Asked: I am curious: what growth value has been reported for COC(=O)[C@@]1(C)CC[C@]2(C)CC[C@]3(C)C4=CC(=O)c5c(cc(O)c(O)c5C)[C@]4(C)CC[C@@]3(C)[C@@H]2C1 ?
Given back: 119

Asked: Sample CC(=O)O[C@H]1CC[C@H]2[C@@H]3CC=C4c5nc(-c6ccccc6)sc5CC[C@]4(C)[C@H]3CC[C@]12C — what was its growth?
Given back: 75.9

Asked: Return reported growth; argument: CC(=O)O[C@H](C[C@H](C(C)C)N(C)C(=O)[C@@H](NC(=O)[C@H]1CCCCN1C)C(C)C)c1nc(C(=O)N[C@@H](Cc2ccccc2)C[C@H](C)C(=O)O)c(C(C)C)s1
Given back: 39.1

Asked: I am curious: what growth value has been reported for CC(=O)O[C@H]1CC[C@]2(C)[C@H]3CC[C@]4(C)[C@@H](OC(C)=O)CC[C@H]4[C@@H]3[C@@H](C)[C@]2(O)C1 ?
Given back: 108
